target.or.test.system: UniProt:Q06518
protocol.summary: Inhibition of iNOS in LPS-induced rat lungs assessed as conversion of L-[3H]arginine to L-[3H]citrulline at 1 mM by liquid scintillation spectroscopy
attribute.measured: inhibition (%)

These recorded examples may help you get a feel for the data.
CCOC(=O)C1CC(C(=O)c2cc(OC)ccc2N)=NN1Cc1ccccc1 (stereo not given) = 10.5
CCOC(=O)C1CC(C(=O)c2ccccc2N)=NN1C (stereo not given) = 12.7
CCCCN1N=C(C(=O)c2cc(OC)ccc2N)CC1C(=O)OCC (stereo not given) = 18.6
CCOC(=O)C1CC(C(=O)c2cc(Cl)ccc2N)=NN1C (stereo not given) = 22.9

1: CCCCn1nc(C(=O)c2cc(OC)ccc2N)cc1C(=O)OCC
2: CCCCN1N=C(C(=O)c2cc(Cl)ccc2N)CC1C(=O)OCC (stereo not given)
3: CCOC(=O)c1cc(C(=O)c2cc(Cl)ccc2N)nn1Cc1ccccc1
4: CCOC(=O)c1cc(C(=O)c2cc(Cl)ccc2N)nn1C
Hello, I need these entries ordered by inhibition, highest reading first. Thanks! Order the labels as requested and give them as your answer. 3, 1, 2, 4

* * *

target.or.test.system: Nitric oxide synthase, inducible (Rattus norvegicus) (UniProt Q06518)
Sequence (Q06518 whole entry): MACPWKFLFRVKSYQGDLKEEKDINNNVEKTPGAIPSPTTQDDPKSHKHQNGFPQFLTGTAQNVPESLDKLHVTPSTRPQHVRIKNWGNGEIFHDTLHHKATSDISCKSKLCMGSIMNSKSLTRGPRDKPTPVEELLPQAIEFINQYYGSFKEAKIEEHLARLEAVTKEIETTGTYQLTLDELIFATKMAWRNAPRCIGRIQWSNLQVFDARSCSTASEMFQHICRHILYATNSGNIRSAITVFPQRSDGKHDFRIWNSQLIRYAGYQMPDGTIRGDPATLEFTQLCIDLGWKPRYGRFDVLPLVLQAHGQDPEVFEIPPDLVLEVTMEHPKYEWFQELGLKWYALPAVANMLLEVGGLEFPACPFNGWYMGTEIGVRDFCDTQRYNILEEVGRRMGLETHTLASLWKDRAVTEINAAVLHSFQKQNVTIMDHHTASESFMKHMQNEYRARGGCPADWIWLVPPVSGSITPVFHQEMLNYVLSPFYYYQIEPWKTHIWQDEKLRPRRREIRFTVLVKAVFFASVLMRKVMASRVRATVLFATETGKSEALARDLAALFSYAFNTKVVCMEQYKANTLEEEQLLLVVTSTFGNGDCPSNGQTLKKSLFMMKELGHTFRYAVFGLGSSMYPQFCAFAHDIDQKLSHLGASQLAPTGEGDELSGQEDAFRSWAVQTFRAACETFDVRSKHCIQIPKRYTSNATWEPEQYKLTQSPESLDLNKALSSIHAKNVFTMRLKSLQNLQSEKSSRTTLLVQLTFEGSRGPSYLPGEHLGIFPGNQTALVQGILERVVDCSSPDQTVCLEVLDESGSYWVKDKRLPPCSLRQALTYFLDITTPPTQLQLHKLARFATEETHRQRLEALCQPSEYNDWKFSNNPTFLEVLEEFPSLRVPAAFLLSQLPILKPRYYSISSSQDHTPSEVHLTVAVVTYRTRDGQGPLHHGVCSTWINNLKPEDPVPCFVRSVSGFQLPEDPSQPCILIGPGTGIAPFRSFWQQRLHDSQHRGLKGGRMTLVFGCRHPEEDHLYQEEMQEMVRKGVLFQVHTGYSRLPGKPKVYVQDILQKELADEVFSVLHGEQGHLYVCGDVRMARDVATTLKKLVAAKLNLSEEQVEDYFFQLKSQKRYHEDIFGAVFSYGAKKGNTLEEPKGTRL
protocol.summary: Inhibition of iNOS in LPS-induced rat lungs assessed as conversion of L-[3H]arginine to L-[3H]citrulline at 1 mM by liquid scintillation spectroscopy
attribute.measured: inhibition (%)

These recorded examples may help you get a feel for the data.
CCOC(=O)c1cc(C(=O)c2cc(OC)ccc2N)nn1CC = 24.6
CCOC(=O)C1CC(C(=O)c2ccccc2N)=NN1CC (configuration not stated) = -1.5
CCOC(=O)C1CC(C(=O)c2ccccc2N)=NN1Cc1ccccc1 (configuration not stated) = 9.4

1: CCOC(=O)c1cc(C(=O)c2cc(Cl)ccc2N)n[nH]1
2: CCOC(=O)C1CC(C(=O)c2cc(OC)ccc2N)=NN1C (configuration not stated)
3: CCCCn1nc(C(=O)c2cc(Cl)ccc2N)cc1C(=O)OCC
Hello, I need these entries ordered by inhibition, highest reading first. Thanks! Order the labels as requested and give them as your answer. 3, 1, 2
(3: 18.7%, 1: 12.8%, 2: 0.6%)
